- tgt: full-length beta-Catenin (Uniprot ID P35222) (Homo sapiens (Human)) (UniProt P35222)
- experimental protocol: fluorescence polarization competition; peptide titrated against 10 nM full-length beta-catenin + 10 nM 5FAM-TCF4(10-53)
Starred links: 1 amine or outer side, 2 acyl side, 3 side chain; linkers in the order of their positions; H or OH if unused. Positions of bridges follow the written chain, without caps; N, C: chain ends. Non-standard residues stand in square brackets, D forms with d. Primed or numbered codes have the meaning given here. PyrS2″ = (S)-3-amino-1-((pent-4-en-1-yloxy)carbonyl)pyrrolidine-3-carboxylic acid (stapling residue), C=CCCCOC(=O)N1CC[C@@](N[*:1])(C(=O)[*:2])C1; B5(4) = 2,2-bis(4-pentenyl)glycine = 2-amino-2-(pent-4-en-1-yl)hept-6-enoic acid (stitching residue), C=CCCCC(CCCC=C)(N[*:1])C(=O)[*:2]; TfeGA = (S)-2-amino-3-((carboxymethyl)(2,2,2-trifluoroethyl)amino)propanoic acid, O=C([C@H](CN(CC(=O)[*:3])CC(F)(F)F)N[*:1])[*:2]; PyrS1 = (S)-3-amino-1-((but-3-en-1-yloxy)carbonyl)pyrrolidine-3-carboxylic acid, C=CCCOC(=O)N1CC[C@@](N[*:1])(C(=O)[*:2])C1; B5(3) = 2,2-bis(4-pentenyl)glycine (stitching residue), C=CCCCC(CCCC=C)(N[*:1])C(=O)[*:2]; B6 = 2-amino-2-(hex-5-en-1-yl)oct-7-enoic acid, C=CCCCCC(CCCCC=C)(N[*:1])C(=O)[*:2]; Phe(3-COOH) = N[C@@H](Cc1cccc(C(=O)O)c1)C(=O)O; Phe(2-CF3) = N[C@@H](Cc1ccccc1C(F)(F)F)C(=O)O; Phe(2-CONH2) = NC(=O)c1ccccc1C[C@H](N)C(=O)O; Phe(2-Cl) = N[C@@H](Cc1ccccc1Cl)C(=O)O; Phe(4-Me) = Cc1ccc(C[C@H](N)C(=O)O)cc1; Bta = N[C@@H](Cc1csc2ccccc12)C(=O)O; αAllylPro = C=CC[C@@]1(C(=O)O)CCCN1; tBuAla = CC(C)(C)C[C@H](N)C(=O)O; 3Thi = N[C@@H](Cc1ccsc1)C(=O)O; S8 = C=CCCCCCC[C@](C)(N)C(=O)O
measured metric: IC50
Units required after the number.

# binder, IC50
data = [
    ("Ac-[αAllylPro]D[tBuAla][B6]D[Phe(3-COOH)]QAFL[PyrS1][Phe(2-CF3)][Bta]A-NH2 (staple 1-4, 4-11) [I-2510]", "24 nM"),
    ("Ac-[αAllylPro]D[tBuAla][B5(4)]D[TfeGA]AAFL[PyrS2″][3Thi][Bta][Phe(2-CONH2)]-NH2 (staple 1-4, 4-11) [I-1707]", "19 nM"),
    ("Ac-[αAllylPro]D[tBuAla][B5(3)]DEAAFT[S8][Phe(2-Cl)][Bta]Q-NH2 (staple 1-4, 4-11; also: earlier eluting staple isomer) [I-1088]", "22 nM"),
]

# evaluate next
Input line: Please look up its IC50: Ac-[αAllylPro]DA[B5(4)]DDAAFA[S8][Phe(4-Me)][Bta]Q-NH2 (staple 1-4, 4-11) [I-369]
Output line: 2310 nM
